B1: ZNF263 (parent)
chain: QPKKLHLCPLCGKNFSNNSNLIRH

Variants of: B1
Test: protein stability index of a GFP-peptide fusion (GPS, HEK-293T) (PSI 1-6); higher = more stable;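 note: lentivirally expressed fusions sorted by FACS into six bins by GFP to DsRed ratio, PSI derived from sequencing read proportions per bin multiplied by bin number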
Details: c terminus: a fixed tail appended
Where protein stability index equals or exceeds 3, the correct label is yes; where it does not, the label is no.

Given the entry `K4I` , answer whether its protein stability index meets or surpasses 3.
no

Given the entry `F15Q` , answer whether its protein stability index meets or surpasses 3.
no

Given the entry `K13W` , answer whether its protein stability index meets or surpasses 3.
no

Given the entry `L7S` , answer whether its protein stability index meets or surpasses 3.
no

Given the entry `N17L` , answer whether its protein stability index meets or surpasses 3.
no

Given the entry `L7K` , answer whether its protein stability index meets or surpasses 3.
no

Given the entry `L7F` , answer whether its protein stability index meets or surpasses 3.
no

Given the entry `N14I` , answer whether its protein stability index meets or surpasses 3.
yes

Given the entry `G12Q` , answer whether its protein stability index meets or surpasses 3.
no

Given the entry `R23D` , answer whether its protein stability index meets or surpasses 3.
yes

Given the entry `Q1E` , answer whether its protein stability index meets or surpasses 3.
yes

Given the entry `G12D` , answer whether its protein stability index meets or surpasses 3.
no

Given the entry `C11K` , answer whether its protein stability index meets or surpasses 3.
no

Given the entry `C8S` , answer whether its protein stability index meets or surpasses 3.
no

Given the entry `C11L` , answer whether its protein stability index meets or surpasses 3.
no

Given the entry `C8F` , answer whether its protein stability index meets or surpasses 3.
no

Given the entry `N18P` , answer whether its protein stability index meets or surpasses 3.
yes

Given the entry `N14R` , answer whether its protein stability index meets or surpasses 3.
no

Given the entry `S19C` , answer whether its protein stability index meets or surpasses 3.
yes

Given the entry `L5G` , answer whether its protein stability index meets or surpasses 3.
no

Given the entry `L10I` , answer whether its protein stability index meets or surpasses 3.
no

Given the entry `S19D` , answer whether its protein stability index meets or surpasses 3.
yes

Given the entry `H24V` , answer whether its protein stability index meets or surpasses 3.
no

Given the entry `I22P` , answer whether its protein stability index meets or surpasses 3.
no

Given the entry `Q1H` , answer whether its protein stability index meets or surpasses 3.
no

Given the entry `L7Q` , answer whether its protein stability index meets or surpasses 3.
no

Given the entry `N17S` , answer whether its protein stability index meets or surpasses 3.
no

Given the entry `K4T` , answer whether its protein stability index meets or surpasses 3.
no

Given the entry `S16R` , answer whether its protein stability index meets or surpasses 3.
no

Given the entry `Q1W` , answer whether its protein stability index meets or surpasses 3.
no

Given the entry `C8Q` , answer whether its protein stability index meets or surpasses 3.
no

Given the entry `G12V` , answer whether its protein stability index meets or surpasses 3.
no

Given the entry `G12K` , answer whether its protein stability index meets or surpasses 3.
no

Given the entry `H24Y` , answer whether its protein stability index meets or surpasses 3.
no

Given the entry `N14A` , answer whether its protein stability index meets or surpasses 3.
yes

Given the entry `N17V` , answer whether its protein stability index meets or surpasses 3.
no

Given the entry `P2E` , answer whether its protein stability index meets or surpasses 3.
no

Given the entry `L5N` , answer whether its protein stability index meets or surpasses 3.
no

Given the entry `H24P` , answer whether its protein stability index meets or surpasses 3.
no

Given the entry `L10E` , answer whether its protein stability index meets or surpasses 3.
yes

Given the entry `K3N` , answer whether its protein stability index meets or surpasses 3.
no

Given the entry `P2H` , answer whether its protein stability index meets or surpasses 3.
no

Given the entry `L7I` , answer whether its protein stability index meets or surpasses 3.
yes

Given the entry `L10G` , answer whether its protein stability index meets or surpasses 3.
no

Given the entry `S19K` , answer whether its protein stability index meets or surpasses 3.
yes

Given the entry `L5K` , answer whether its protein stability index meets or surpasses 3.
no

Given the entry `L5D` , answer whether its protein stability index meets or surpasses 3.
yes

Given the entry `G12P` , answer whether its protein stability index meets or surpasses 3.
no

Given the entry `K3T` , answer whether its protein stability index meets or surpasses 3.
no

Given the entry `S19Q` , answer whether its protein stability index meets or surpasses 3.
no

Given the entry `H6V` , answer whether its protein stability index meets or surpasses 3.
no

Given the entry `I22R` , answer whether its protein stability index meets or surpasses 3.
no

Given the entry `R23F` , answer whether its protein stability index meets or surpasses 3.
no

Given the entry `N20C` , answer whether its protein stability index meets or surpasses 3.
yes

Given the entry `N17I` , answer whether its protein stability index meets or surpasses 3.
no

Given the entry `K3G` , answer whether its protein stability index meets or surpasses 3.
no

Given the entry `K4S` , answer whether its protein stability index meets or surpasses 3.
yes

Given the entry `K4C` , answer whether its protein stability index meets or surpasses 3.
no

Given the entry `S16T` , answer whether its protein stability index meets or surpasses 3.
no

Given the entry `P2Q` , answer whether its protein stability index meets or surpasses 3.
no

Given the entry `P9S` , answer whether its protein stability index meets or surpasses 3.
no

Given the entry `L7E` , answer whether its protein stability index meets or surpasses 3.
no

Given the entry `C11W` , answer whether its protein stability index meets or surpasses 3.
no

Given the entry `Q1K` , answer whether its protein stability index meets or surpasses 3.
no

Given the entry `H6Y` , answer whether its protein stability index meets or surpasses 3.
no

Given the entry `P9T` , answer whether its protein stability index meets or surpasses 3.
no

Given the entry `K3L` , answer whether its protein stability index meets or surpasses 3.
no

Given the entry `Q1R` , answer whether its protein stability index meets or surpasses 3.
no

Given the entry `C8L` , answer whether its protein stability index meets or surpasses 3.
no

Given the entry `G12C` , answer whether its protein stability index meets or surpasses 3.
no

Given the entry `R23G` , answer whether its protein stability index meets or surpasses 3.
no

Given the entry `N14E` , answer whether its protein stability index meets or surpasses 3.
yes

Given the entry `H6N` , answer whether its protein stability index meets or surpasses 3.
no

Given the entry `F15A` , answer whether its protein stability index meets or surpasses 3.
no

Given the entry `H24G` , answer whether its protein stability index meets or surpasses 3.
no

Given the entry `N20Q` , answer whether its protein stability index meets or surpasses 3.
yes

Given the entry `F15N` , answer whether its protein stability index meets or surpasses 3.
no

Given the entry `H6P` , answer whether its protein stability index meets or surpasses 3.
no

Given the entry `F15P` , answer whether its protein stability index meets or surpasses 3.
no

Given the entry `I22N` , answer whether its protein stability index meets or surpasses 3.
no

Given the entry `L21I` , answer whether its protein stability index meets or surpasses 3.
no

Given the entry `G12I` , answer whether its protein stability index meets or surpasses 3.
no

Given the entry `S16A` , answer whether its protein stability index meets or surpasses 3.
no

Given the entry `I22V` , answer whether its protein stability index meets or surpasses 3.
no
